Target: T1, TNFR1 (Homo sapiens, UniProt P19438)
T1 chain: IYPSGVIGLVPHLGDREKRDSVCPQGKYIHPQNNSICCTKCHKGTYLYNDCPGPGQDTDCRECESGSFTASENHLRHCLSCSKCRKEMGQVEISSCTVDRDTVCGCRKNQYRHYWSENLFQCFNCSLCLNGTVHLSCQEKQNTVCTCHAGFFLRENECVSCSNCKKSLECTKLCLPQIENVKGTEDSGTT
Assay: yeast display SC50
measure-name: apparent Kd (screen) (nM)

P79A (designed binder) MTLQELLREEALRRAEAEAFRYALELLAEKFPEQKEYLLDLAEEIESQIRSLSGVDVEDVRKFLDKEWAWVKELLAEHAAELAEVEAARAARLAELRAEVEAKVAA: 0.718
D56I (designed binder) MTLQELLREEALRRAEAEAFRYALELLAEKFPEQKEYLLDLAEEIESQIRSLSGVIVEDVRKFLDKEWAWVKELLAEHPAELAEVEAARAARLAELRAEVEAKVAA: 2.73
A94W (designed binder) MTLQELLREEALRRAEAEAFRYALELLAEKFPEQKEYLLDLAEEIESQIRSLSGVDVEDVRKFLDKEWAWVKELLAEHPAELAEVEAARAARLWELRAEVEAKVAA: 0.539
V55F (designed binder) MTLQELLREEALRRAEAEAFRYALELLAEKFPEQKEYLLDLAEEIESQIRSLSGFDVEDVRKFLDKEWAWVKELLAEHPAELAEVEAARAARLAELRAEVEAKVAA: 0.869

P = L96F (designed binder) MTLQELLREEALRRAEAEAFRYALELLAEKFPEQKEYLLDLAEEIESQIRSLSGVDVEDVRKFLDKEWAWVKELLAEHPAELAEVEAARAARLAEFRAEVEAKVAA
Q = L6N (designed binder) MTLQENLREEALRRAEAEAFRYALELLAEKFPEQKEYLLDLAEEIESQIRSLSGVDVEDVRKFLDKEWAWVKELLAEHPAELAEVEAARAARLAELRAEVEAKVAA
Q: Identify the entry with the larger apparent Kd (screen). Options: P and Q Please identify the chosen entry by its label.
A: Q

P = Y22N (designed binder) MTLQELLREEALRRAEAEAFRNALELLAEKFPEQKEYLLDLAEEIESQIRSLSGVDVEDVRKFLDKEWAWVKELLAEHPAELAEVEAARAARLAELRAEVEAKVAA
Q = D40V (designed binder) MTLQELLREEALRRAEAEAFRYALELLAEKFPEQKEYLLVLAEEIESQIRSLSGVDVEDVRKFLDKEWAWVKELLAEHPAELAEVEAARAARLAELRAEVEAKVAA
Q: Which record would sort first by descending apparent Kd (screen), P or Q ? State the label of the item chosen.
A: Q

Just for reference, paper PMC12416549 is where these values come from.
